Procedure details: SNALP particle diameter and polydispersity, Malvern Zetasizer
Format: physicochemical
Conditions: SNALP DSPC:Chol:PEG-C-DMA:Cationic Lipid 20:48:2:30 molar percent; mean of 3 experiments, error is standard deviation
Entries and their Polydispersity values follow.
Output spec: single numeric token, no unit.

Example cases with answers are listed next.
# Molecule, Measurement kind, Measured result
records = [
    ("CC/C=C\\C/C=C\\C/C=C\\CCCCCCCCOCC(CN(C)C)OCCCCCCCC/C=C\\C/C=C\\C/C=C\\CC (stereo not shown)", "Polydispersity", 0.13),
    ("CCCCCCCCCCCCCCCCCC[N+](C)(C)CCCCCCCCCCCCCCCCCC [DSDMA, Distearyldimethylammonium]", "Polydispersity", 0.15),
    ("CCCCC/C=C\\C/C=C\\CCCCCCCCOCC(CN(C)C)OCCCCCCCC/C=C\\C/C=C\\CCCCC (stereo not shown)", "Polydispersity", 0.11),
]

Could you now consider this next molecule?
Please list Polydispersity recorded for the molecule CCCCCCCCCCCCCCCCCC[N+](C)(C)CCCCCCCCCCCCCCCCCC [DODMA, dioctadecyldimethylammonium]
0.12

---

Listing of recorded luciferase expression relative to untreated control by entry.
Test system: luciferase expression in Neuro2A-G cells (Neuro2A cells stably transfected to express luciferase)
Procedure details: In vitro transfection: luciferase gene silencing by SNALP encapsulating anti-luciferase siRNA
Format: cell-based
Conditions: SNALP with anti-luciferase siRNA, after 48 hours
Use % as the unit, but write only the number.

Solved cases (2 shown):
# Molecule, Unit of measure, Measured result
rows = [
    ("CCCCC/C=C\\C/C=C\\CCCCCCCCOCC(CN(C)C)OCCCCCCCC/C=C\\C/C=C\\CCCCC (stereo not shown) [DLinDMA]", "%", 21),
    ("CC/C=C\\C/C=C\\C/C=C\\CCCCCCCCOCC(CN(C)C)OCCCCCCCC/C=C\\C/C=C\\C/C=C\\CC (stereo not shown) [DLenDMA]", "%", 32),
]

Field: next molecule
Note down luciferase expression relative to untreated control recorded for CCCCCCCCCCCCCCCCCC[N+](C)(C)CCCCCCCCCCCCCCCCCC [DODMA, dioctadecyldimethylammonium]
54

src = patent US7745651B2
